Tested on: synthesis of LTB4 in human whole blood
experiment-description: human whole blood (HWB) assay, LTB4 production inhibition after calcimycin stimulation
Format: cell-based
settings: heparinized human whole blood, calcimycin 20 μM, plasma LTB4 by HTRF
pIC50: −log10 of the molar value.
Label class 0 if pIC50 falls below 7; label class 1 in every other case.

Problem: Dear colleague, could you confirm whether "CN[C@H](C)C(=O)NC1CCN(Cc2ccc([C@H]3COc4cccnc4O3)cc2)CC1" has pIC50 at or above 7?
Result: class 0

Problem: Dear colleague, could you confirm whether "O=C(NC1CCN(Cc2ccc([C@H]3COc4cccnc4O3)cc2)CC1)C1CCOCC1" has pIC50 at or above 7?
Result: class 1

Problem: Dear colleague, could you confirm whether "O=C(C1CCN(Cc2ccc([C@H]3COc4cccnc4O3)cc2)CC1)N1CC(O)C1" has pIC50 at or above 7?
Result: class 0

Problem: Dear colleague, could you confirm whether "c1cncc(OC2CCN(Cc3ccc([C@H]4COc5cccnc5O4)cc3)CC2)c1" has pIC50 at or above 7?
Result: class 1

Problem: Dear colleague, could you confirm whether "CNC(=O)c1nnc2n1CCN(Cc1ccc([C@H]3COc4cccnc4O3)cc1)C2" has pIC50 at or above 7?
Result: class 0
